# MEASURED_ON: Peptidyl-prolyl cis-trans isomerase A (Homo sapiens, UniProt P62937)
# Sequence (P62937 whole entry, looked up): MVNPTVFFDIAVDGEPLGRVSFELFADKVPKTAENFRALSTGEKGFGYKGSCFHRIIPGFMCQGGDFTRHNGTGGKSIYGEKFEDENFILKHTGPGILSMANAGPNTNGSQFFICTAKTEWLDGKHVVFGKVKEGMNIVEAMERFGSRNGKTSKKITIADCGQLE
# PROCEDURE_SUMMARY: Binding affinity to His6-tagged CypA (unknown origin) expressed in Escherichia coli BL21 (DE3) incubation at 1 hr by multimode plate reader
Active and inactive are the calls of the source. The calls are words filed in the database; no cut-off is given here. Positions of bridges follow the written chain, without caps; N, C: chain ends. Residues, ends and D or L forms follow the SMILES beside them.

MOLECULE	Activity
CC[C@H](C)[C@@H]1NC(=O)[C@H](C)NC(=O)[C@@H](NC(C)=O)CSSC[C@@H](C(N)=O)NC(=O)[C@H](CCC(=O)O)NC(=O)[C@H](C(C)C)NC(=O)[C@H](CCCCN)NC(=O)[C@H](CCCNC(=N)N)NC(=O)CNC(=O)[C@H](CC(=O)O)NC(=O)[C@H](CCCCN)NC(=O)[C@H](CC(C)C)NC(=O)[C@H](CCCCN)NC1=O (Ac-CAIKLKDGRKVEC-NH2; disulfide 1-13)	Active
CC[C@H](C)[C@@H]1NC(=O)[C@H](CC(C)C)NC(=O)[C@@H](NC(C)=O)CSSC[C@@H](C(N)=O)NC(=O)[C@H](CCC(=O)O)NC(=O)[C@H](C)NC(=O)[C@H](CCCCN)NC(=O)[C@H](CCCNC(=N)N)NC(=O)CNC(=O)[C@H](CC(=O)O)NC(=O)[C@H](CCCCN)NC(=O)[C@H](CC(C)C)NC(=O)[C@H](CCCCN)NC1=O (Ac-CLIKLKDGRKAEC-NH2; disulfide 1-13)	Active
